target: JAK3 (recombinant human kinase domain; h-jak3(810-1124)) (Homo sapiens); construct: h-jak3(810- 1124)-sf9-c; made in house; host or cells: Sf9 insect cells; test: Determination of IC50 of Janus Kinase (JAK) inhibition: JAK3, radioactive end-point assay with 33P-ATP; assay type: biochemical; conditions: JAK3 kinase domain; ATP 1.5 uM, peptide 50 uM, 20 minutes, room temperature, 10% DMSO; read-out: Ic50 h-jak3(810-1124)-sf9-c:no additive
Sequence (P52333 810-1124): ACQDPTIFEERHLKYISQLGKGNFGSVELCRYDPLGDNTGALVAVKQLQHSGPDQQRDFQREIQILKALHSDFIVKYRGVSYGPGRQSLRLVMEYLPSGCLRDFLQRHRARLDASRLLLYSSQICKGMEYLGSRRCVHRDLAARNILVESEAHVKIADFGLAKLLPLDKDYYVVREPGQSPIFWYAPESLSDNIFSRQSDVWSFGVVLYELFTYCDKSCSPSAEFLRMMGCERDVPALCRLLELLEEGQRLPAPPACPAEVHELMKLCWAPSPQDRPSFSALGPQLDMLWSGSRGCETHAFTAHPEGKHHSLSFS
pIC50: −log10 of the molar value.
experimentalEndpoint: pIC50

# count of solved cases: 5
[
  {
    "compound": "CC1CCCCC1NC(=O)c1ccc(-c2cnc3[nH]cc(C(=O)N[C@@H](C)C(C)(C)C)c3n2)s1 (some centres unmarked)",
    "assayResult": 9.16
  },
  {
    "compound": "CCc1cccc(-n2cnc(-c3cnc4[nH]cc(C(=O)N[C@@H](C)C(C)(C)C)c4n3)c2)c1",
    "assayResult": 7.91
  },
  {
    "compound": "CCC(NC(=O)c1c[nH]c2ncc(C3CC3)nc12)C1CCCCC1 (centres unmarked)",
    "assayResult": 7.16
  },
  {
    "compound": "C[C@H](NC(=O)c1c[nH]c2ncc(-c3ccc(C(=O)NCc4cccc(Cl)c4Cl)s3)nc12)C(C)(C)C",
    "assayResult": 9.34
  },
  {
    "compound": "CC(C)(O)[C@@H](NC(=O)c1c[nH]c2ncc(C3CC3)nc12)C1CCCCC1",
    "assayResult": 6.06
  }
]

(a) C[C@@H](NC(=O)c1c[nH]c2ncc(C3CC3)nc12)C1(O)CCCC1
(b) Cc1cc(-c2cnc3[nH]cc(C(=O)N[C@@H](C)C(C)(C)C)c3n2)sc1C(=O)N1CCS(=O)(=O)CC1
(c) C[C@H]1C[C@H]1c1cnc2[nH]cc(C(=O)NCC(C)(C)CO)c2n1
(d) CCNC(=O)c1c[nH]c2ncc(Oc3ccccc3Cl)nc12
Ask: Given 4 compounds, produce a descending ranking by pIC50. Arrange the labels as the request states and list them.
Result: b, a, c, d
(b: 9.64, a: 7.82, c: 6.64, d: 5.96)

(P) C[C@H](NC(=O)c1c[nH]c2ncc(-c3cccs3)nc12)C(C)(C)C
(Q) C[C@@H](NC(=O)c1c[nH]c2ncc(C3CC3)nc12)C1CCCCC1
Ask: Could you check which of P and Q has a smaller value for pIC50? Pick one; state its label.
Result: Q
(Q: 7.82, P: 9.74)

###

molecular target: JAK3 (recombinant human kinase domain; h-jak3(810-1124)) (Homo sapiens); construct: h-jak3(810- 1124)-sf9-c; made in house; host or cells: Sf9 insect cells; assay: Determination of IC50 of Janus Kinase (JAK) inhibition: JAK3, radioactive end-point assay with 33P-ATP; format: biochemical; conditions: JAK3 kinase domain; ATP 1.5 uM, peptide 50 uM, 20 minutes, room temperature, 10% DMSO; read-out: Ic50 h-jak3(810-1124)-sf9-c:no additive
pIC50: −log10 of the molar value.
experimentalEndpoint: pIC50

[
  {
    "molecule": "N#CC[C@@H](NC(=O)c1c[nH]c2ncc(C3CC3)nc12)C1CC1",
    "experimentalEndpoint": "pIC50",
    "assayResult": 7.69
  },
  {
    "molecule": "O=C(NC(CO)CO)c1c[nH]c2ncc(C3CC3)nc12",
    "experimentalEndpoint": "pIC50",
    "assayResult": 6.38
  },
  {
    "molecule": "CC(CN(C)C)NC(=O)c1c[nH]c2ncc(C3CC3)nc12 (stereo not drawn)",
    "experimentalEndpoint": "pIC50",
    "assayResult": 6.03
  },
  {
    "molecule": "CCNC(=O)c1c[nH]c2ncc(Oc3cccc(C(C)C)c3)nc12",
    "experimentalEndpoint": "pIC50",
    "assayResult": 5.34
  },
  {
    "molecule": "CC(C)(O)[C@H](NC(=O)c1c[nH]c2ncc(C3CC3)nc12)C1CC1",
    "experimentalEndpoint": "pIC50",
    "assayResult": 7.57
  }
]

(A) C[C@@H](NC(=O)c1c[nH]c2ncc(-c3cnn(C)c3)nc12)C(C)(C)O
(B) CC(NC(=O)c1c[nH]c2ncc(Oc3ccc(F)cc3)nc12)C1CC1 (stereo not drawn)
(C) C[C@H](NC(=O)c1c[nH]c2ncc(-c3ccc(C(=O)NCc4cccnc4)s3)nc12)C(C)(C)C
(D) COCC(C)(C)CNC(=O)c1c[nH]c2ncc(C3CC3)nc12
Ask: Hello, I need these entries ordered by pIC50, highest reading first. Thanks! Submit the labels in the order that the ranking request calls for.
Result: C, A, B, D
(C: 9.49, A: 7.99, B: 7.45, D: 7.23)
